Data provenance is patent US20230263822A1.

// reported Percent change in organ weight: Liver per item
- METHOD NOTES: Tolerability in Sprague-Dawley rats: body weight and organ weight (Example 35)
- Assay type: in vivo
- CONDITION LABEL: 50 mg/kg s.c. twice per week for 6 weeks, vs saline control, normalized to body weight

Here are 5 substances together with their reported answers.
| SUBSTANCE | RESULT |
| --- | --- |
| 417002 (antisense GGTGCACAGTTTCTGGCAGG; 2-13-5 gapmer chemistry, further chemistry not given here) [compound 417002] | +27% |
| 416999 (antisense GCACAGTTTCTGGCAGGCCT; 2-13-5 gapmer chemistry, further chemistry not given here) [compound 416999] | +51% |
| 416825 (antisense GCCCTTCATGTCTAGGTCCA; 5-10-5 gapmer, further chemistry not given here) [compound 416825] | +20% |
| 416892 (antisense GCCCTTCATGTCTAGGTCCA; 3-14-3 chimeric gapmer, further chemistry not given here) [compound 416892] | +38% |
| 416850 (antisense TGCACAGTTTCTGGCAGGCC; 5-10-5 gapmer, further chemistry not given here) [compound 416850] | +23% |

Report Percent change in organ weight: Liver for 416925 (antisense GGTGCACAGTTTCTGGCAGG; 3-14-3 gapmer chemistry, further chemistry not given here) [compound 416925]
+44%
